Exercise: state measured TGI for each of the compounds provided.
Test system: EKVX NSCLC
Assay: NCI tumour cell line growth inhibition, 48 h

Each compound below has a recorded value; state its TGI.
1. C/C(=N\N=C(N)N)c1c(C(=O)OCCCCCCOC(=O)c2nc3sccn3c2/C(C)=N/N=C(N)N)nc2sccn12
2. N#Cc1c(N)c(-c2ccc(Cl)cc2)c(F)c2ccccc12
3. COc1cc2oc3ccccc3c(=O)c2cc1CSc1ccccc1N
4. O=C1c2cc3c(cc2CC12Cc1cc4c(cc1C2)CCC4)CCC3
5. CC(C)c1ccc(/C=C(\NC(=O)c2ccccc2)c2nc3ccccc3[nH]2)cc1
6. C=C(CCOC)CCC1CCCCC(=C)C1=O (stereo not given)
7. O=C(Cc1nc2ccc(C(=O)c3ccccc3)cc2[nH]c1=O)C(=O)Nc1ccccc1[N+](=O)[O-]
8. COC(=O)Cc1c(C2=Nc3ccccc3C2(O)CC(=O)OC)[nH]c2ccccc12 (stereo not given)

Resp:
["> 100 µM", "> 100 µM", "> 100 µM", "> 100 µM", "90 µM", "> 100 µM", "> 100 µM", "> 100 µM"]

Each compound below has a recorded value; state its TGI.
1. O=C(N[C@@H]1CCCc2ccccc21)[C@H](CCC(=O)N1CCN(C2CCCCC2)CC1)N1C(=O)[C@@H](N2C(=O)OC[C@@H]2c2ccccc2)[C@H]1/C=C/c1ccccc1
2. COc1ccc(S(=O)(=O)N/N=C/C(=O)O)cc1

Resp:
["> 100 µM", "> 1250 µM"]

###

Test system: HCT-116 colon
Assay: NCI tumour cell line growth inhibition, 48 h
Exercise: state measured TGI for each of the compounds provided.
One number for each entry, in µM.

// below: answered compounds
{"COMPOUND": "CCCC/C(=N\\N=C(N)N)c1ccc(F)cc1", "ASSAYED TARGET": "HCT-116 colon", "READOUT UNITS": "µM", "NUMERIC READOUT": 14.6}
{"COMPOUND": "C/C(=C(/c1ccc(O)cc1)c1ccc(OCCN2CCCC2)cc1)c1ccccc1", "ASSAYED TARGET": "HCT-116 colon", "READOUT UNITS": "µM", "NUMERIC READOUT": 10.1}
{"COMPOUND": "N#CC1c2ccccc2-c2ccccc2N1C(=O)c1ccccc1 (stereo not given)", "ASSAYED TARGET": "HCT-116 colon", "READOUT UNITS": "µM", "NUMERIC READOUT": 9.22}
{"COMPOUND": "O=C(Nc1cccc2nsnc12)c1cc2c(cc1Cl)Sc1nccn1S2(=O)=O", "ASSAYED TARGET": "HCT-116 colon", "READOUT UNITS": "µM", "NUMERIC READOUT": 6.97}

Next compound, TGI to be filled in.
Req: I would be grateful if you could share the reported TGI for Nc1ncnc2occ(-c3ccc(NC(=O)Nc4cc(C(F)(F)F)cc(C(F)(F)F)c4)cc3)c12 .
Resp: 5.64

###

System: MALME-3M melanoma
Test: NCI tumour cell line growth inhibition, 48 h; in the data active = GI50 below about 0.43 µM; inactive = the rest
Hi there, use one of these labels in your reply, thanks! active, inactive

Use the examples below as a reference point.
{"COMPOUND": "CCN(CC)CCC(=O)Nc1ccc(Cn2nnc3c2C(=O)c2nnn(Cc4ccc(NC(=O)CCN(CC)CC)cc4)c2C3=O)cc1", "LABEL CLASS": "active"}
{"COMPOUND": "COc1cc[nH]c1/C=C1\\C(=O)Nc2ccc(F)c(C#CC3(O)CCOCC3)c21", "LABEL CLASS": "inactive"}
{"COMPOUND": "CCCCCCCCCCCCCCCC[N+]1(CC)CCCC1", "LABEL CLASS": "inactive"}
{"COMPOUND": "CC(C)(C)n1cc(-c2ccnc(NCCNS(=O)(=O)c3ccc(Br)cc3)c2)c(-c2cccc(O)c2)n1", "LABEL CLASS": "inactive"}
{"COMPOUND": "Cc1nn(-c2ccccc2)c2c1C1C(=C(c3ccc(Cl)cc3)N2)C(=O)Nc2ccccc21 (stereo unspecified)", "LABEL CLASS": "inactive"}

Req: Can you look up the reported call for Nc1ncnc2occ(-c3ccc(NC(=O)Nc4cc(C(F)(F)F)cc(C(F)(F)F)c4)cc3)c12 for me?
Resp: inactive

Req: Can you look up the reported call for COc1ccccc1Cn1cc2c(c1)-c1oncc1CC2 for me?
Resp: inactive

Req: Can you look up the reported call for O=C1OC(c2ccc(O)cc2)(c2ccc(O)cc2)c2cccc3cccc1c23 for me?
Resp: inactive

FYI, the data here is from PubChem BioAssay (NCI).
